The measured values listed here are drawn from ChEMBL document CHEMBL1153599.

Hi there, I'd appreciate the recorded viability at 10 µM for every entry that follows.
# Tested on: HeLa
# PROTOCOL_SUMMARY: Viability of human HeLa cells at 10 uM after 24 hrs by MTT assay
Numbers only, in %.

Use the examples below as a reference point.
1. CC1CCC(C(C)C)C(O[C@H]2OC(=O)C(Br)=C2Sc2nnc(-c3ccc([N+](=O)[O-])cc3)s2)C1 (some centres not stated) :: 34.5
2. COc1ccc(-c2nnc(SC3=C(Br)C(=O)O[C@@H]3OC3CC(C)CCC3C(C)C)s2)cc1 (some centres not stated) :: 35.6
3. CC1(C)C2CCC1(C)C(O[C@H]1OC(=O)C(Br)=C1Sc1nnc(-c3ccco3)s1)C2 (some centres not stated) :: 28.6
4. CC1CCC(C(C)C)C(O[C@H]2OC(=O)C(Br)=C2Sc2nnc(-c3ccc(Cl)cc3)s2)C1 (some centres not stated) :: 35.1

# map each compound to its viability at 10 µM
1. CC1CCC(C(C)C)C(O[C@H]2OC(=O)C(Br)=C2Sc2nnc(-c3ccccc3O)s2)C1 (some centres not stated)
2. CC1CCC(C(C)C)C(O[C@H]2OC(=O)C(Br)=C2Sc2nnc(-c3ccc(O)cc3)s2)C1 (some centres not stated)
3. CC1(C)C2CCC1(C)C(O[C@H]1OC(=O)C(Br)=C1Sc1nnc(-c3ccncc3)s1)C2 (some centres not stated)
4. CC1CCC(C(C)C)C(O[C@H]2OC(=O)C(Br)=C2Sc2nnc(-c3cccnc3)s2)C1 (some centres not stated)
5. CC1CCC(C(C)C)C(O[C@H]2OC(=O)C(Br)=C2Sc2nnc(-c3ccco3)s2)C1 (some centres not stated)
6. CC1CCC(C(C)C)C(O[C@H]2OC(=O)C(Br)=C2Sc2nnc(-c3ccncc3)s2)C1 (some centres not stated)
7. CC1(C)C2CCC1(C)C(O[C@H]1OC(=O)C(Br)=C1Sc1nnc(-c3cccnc3)s1)C2 (some centres not stated)
8. CC1CCC(C(C)C)C(O[C@H]2OC(=O)C(Br)=C2Sc2nnc(-c3ccccc3)s2)C1 (some centres not stated)

1. 42.3
2. 44.4
3. 39.4
4. 32.8
5. 36.9
6. 26.8
7. 40.5
8. 28.1
